experiment: Stability in human CEM-SS cell culture medium; assay type: ADME, cell-based
Please mark Fulfilled if the recorded half-life is equal to or greater than 10 days, and Not fulfilled if it falls below.

Illustrative cases are given below, each with its answer.
Would you say Cc1cn([C@H]2C[C@H](N=[N+]=[N-])[C@@H](COP(=O)(OCCSC(=O)C(C)(CO)CO)Oc3ccccc3)O2)c(=O)[nH]c1=O (some centres not stated) shows half-life at minimum 10 days?
Not fulfilled

Would you say Cc1cn([C@H]2C[C@H](N=[N+]=[N-])[C@@H](COP(=O)(OCCSC(=O)[C@@H](N)C(C)C)Oc3ccccc3)O2)c(=O)[nH]c1=O (some centres not stated) shows half-life at minimum 10 days?
Not fulfilled

Would you say Cc1cn([C@H]2C[C@H](N=[N+]=[N-])[C@@H](COP(=O)(OCCSC(=O)C(C)(C)NC(=O)OC(C)(C)C)Oc3ccccc3)O2)c(=O)[nH]c1=O (some centres not stated) shows half-life at minimum 10 days?
Fulfilled

Others:
Would you say Cc1cn([C@H]2C[C@H](N=[N+]=[N-])[C@@H](COP(=O)(OCCSC(=O)C(C)(C)C)Oc3ccccc3)O2)c(=O)[nH]c1=O (some centres not stated) shows half-life at minimum 10 days?
Fulfilled

Would you say Cc1cn([C@H]2C[C@H](N=[N+]=[N-])[C@@H](COP(=O)(OCCSC(=O)[C@@H](NC(=O)OC(C)(C)C)C(C)C)Oc3ccccc3)O2)c(=O)[nH]c1=O (some centres not stated) shows half-life at minimum 10 days?
Not fulfilled

Would you say Cc1cn([C@H]2C[C@H](N=[N+]=[N-])[C@@H](COP(=O)(OCCSC(=O)C(C)(C)CO)Oc3ccccc3)O2)c(=O)[nH]c1=O (some centres not stated) shows half-life at minimum 10 days?
Fulfilled

Would you say Cc1cn([C@H]2C[C@H](N=[N+]=[N-])[C@@H](COP(=O)(OCCSC(=O)C(C)(C)N)Oc3ccccc3)O2)c(=O)[nH]c1=O (some centres not stated) shows half-life at minimum 10 days?
Not fulfilled
